Target: T1, hMC4-R (human, UniProt P32245 1-332)
T1 construct: whole, on cells; cAMP assay on whole transfected HEK-293 cells; also called MC4 receptor; melanocortin-4 receptor
T1 sequence (P32245 whole entry): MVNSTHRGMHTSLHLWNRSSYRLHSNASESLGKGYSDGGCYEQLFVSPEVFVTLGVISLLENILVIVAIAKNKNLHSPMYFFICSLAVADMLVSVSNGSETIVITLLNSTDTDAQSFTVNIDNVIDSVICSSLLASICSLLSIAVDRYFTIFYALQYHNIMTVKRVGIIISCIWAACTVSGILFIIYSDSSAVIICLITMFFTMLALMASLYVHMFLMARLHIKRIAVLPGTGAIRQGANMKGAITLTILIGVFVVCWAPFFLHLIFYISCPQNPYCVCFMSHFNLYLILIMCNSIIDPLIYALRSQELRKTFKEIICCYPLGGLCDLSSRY
Experiment: titrated competitive binding assay on receptor membranes
measuredParameter: pKi
// returns pKi (minus log10 of molar concentration), number only

Exam item: Reported pKi, binder XDHFKWK (N-terminal acetyl; Nle at 1 (X); D-Phe at 4; cyclo (lactam) between side chains of Asp 2 and Lys 7; C-terminal free acid (-OH), Synthetic cyclic heptapeptide; X = norleucine; also called Ac-Nle-cyclo( -Asp-His-D-Phe-Lys-Trp-Lsy)-OH) [Ac-Nle-cyclo(-Asp-His-D-Phe-Lys-Trp-Lys)-OH] : ____
Marked response: 3.13
